Data credit: patent US9822113B2

tested on: Salmonella enterica strain AMC (ATCC #6539); assay: Antibiotic assay: MIC by Promega Bac Titer-Glo microbial cell viability assay; assay type: cell-based; conditions: Salmonella enterica, ATCC6539, 24 h, 24 hours treatment, inoculum ~5×10^4 CFU/mL, Mueller Hinton broth, read-out: MIC
Reported MIC is given for each of the following molecules.
Form entry: value (µg/mL) — number only.

Notebook: `CC1(C)CCn2c(=O)n(C[C@H](O)[C@H](O)[C@H](O)CO)c3cccc1c32` , MIC read as 4

Notebook: `Cc1cc2c3c(c1C)C(C)(C)CCn3c(=O)c(=O)n2C[C@H](O)[C@H](O)[C@H](O)CO` , MIC read as 8

Notebook: Cc1cc2c3c(c1C)C(C)(C)CCn3c(=O)c(=O)n2CC(O)C(O)C(O)CO (stereo not shown) , MIC read as 4

Notebook: CCOC(=O)Cn1cc(Cn2c(=O)n3c4c(cccc42)C(C)(C)CC3)nn1 [Compound 24b] , MIC read as 8
